- SYSTEM NAME: CDK2/CycE (Homo sapiens (Human), UniProt P24941)
- METHOD SUMMARY: CDK2/CycE kinase assay (Method 2)
- MEASUREMENT SETUP: 10 μM ATP
pIC50: −log10 of the molar value.
READOUT KIND: pIC50

Example results:
COMPOUND	pIC50
CS(=O)(Cc1cc(Nc2ncc(F)c(-c3ccc(F)cc3F)n2)cc(C(F)(F)F)c1)=NC#N (single isomer, unassigned) [Example 3]	5.89
CS(=N)(=O)Cc1cccc(Nc2ncc(F)c(-c3ccc(F)cc3F)n2)c1 (racemic)	5.96

I = CS(=O)(Cc1cc(Br)cc(Nc2ncc(F)c(-c3ccc(F)cc3F)n2)c1)=NC#N (single isomer, unassigned) [Example 40]
II = CS(=N)(=O)Cc1cc(Nc2ncc(F)c(-c3ccc(F)cc3F)n2)cc(S(F)(F)(F)(F)F)c1 (single isomer, unassigned) [Example 31]
III = CS(=N)(=O)Cc1cc(Nc2ncc(F)c(-c3ccc(F)cc3F)n2)cc(S(F)(F)(F)(F)F)c1 (single isomer, unassigned) [Example 32]
[ask] Could you please sort these 3 entries by pIC50 from high to low? Return value: ordered labels per request.
[reply] I, II, III
(I: 6.99, II: 6.05, III: 5.80)

====

- Tested on: MOLM-13 human acute myeloid leukemia cells
- METHOD SUMMARY: Proliferation assay, MOLM-13 (Cell Titre-Glo, Method 3)
- Type: cell-based
- MEASUREMENT SETUP: Homo sapiens, MOLM-13, 72 h, MOLM-13, 72-hour exposure, read-out: Inhibition of MOLM-13 cell proliferation IC50
READOUT KIND: IC50 (nM)

COMPOUND	IC50 (nM)
CS(=N)(=O)Cc1cc(Nc2ncc(F)c(-c3ccc(F)cc3F)n2)cc(S(F)(F)(F)(F)F)c1 (single isomer, unassigned)	281

I = CS(=N)(=O)Cc1cc(Nc2ncc(F)c(-c3ccc(F)cc3F)n2)cc(C(F)(F)F)c1 (single isomer, unassigned)
II = CS(=O)(Cc1cc(Nc2ncc(F)c(-c3ccc(F)cc3F)n2)cc(S(F)(F)(F)(F)F)c1)=NC#N (single isomer, unassigned) [Example 29]
III = CS(=N)(=O)Cc1cc(Br)cc(Nc2ncc(F)c(-c3ccc(F)cc3F)n2)c1 (single isomer, unassigned)
IV = CS(=O)(Cc1cc(Nc2ncc(F)c(-c3ccc(F)cc3F)n2)cc(S(F)(F)(F)(F)F)c1)=NC#N (racemic) [Example 28]
[ask] Which order do these items take when sorted by rising IC50? List them. Return value: ordered labels per request.
[reply] II, IV, I, III

====

- METHOD SUMMARY: In vitro metabolic stability in rat hepatocytes (Method 5)
- Type: in vitro ADME, Han Wistar rat
- MEASUREMENT SETUP: 1 μM test compound
READOUT KIND: maximal calculated oral bioavailability (Fmax) based on stability data in rat Hepatocytes (%)

COMPOUND	REPORTED MEASUREMENT
CS(=N)(=O)Cc1cc(Nc2ncc(F)c(-c3ccc(F)cc3F)n2)cc(C(F)(F)F)c1 (single isomer, unassigned) [Example 5]	77
CS(=O)(Cc1cc(Nc2ncc(F)c(-c3ccc(F)cc3F)n2)cc(C(F)(F)F)c1)=NC(N)=O (racemic) [Example 7]	80
CS(=O)(Cc1cc(Nc2ncc(F)c(-c3ccc(F)cc3F)n2)cc(S(F)(F)(F)(F)F)c1)=NC(N)=O (single isomer, unassigned) [Example 34]	90
CS(=N)(=O)Cc1cc(Nc2ncc(F)c(-c3ccc(F)cc3F)n2)cc(S(F)(F)(F)(F)F)c1 (single isomer, unassigned) [Example 32]	91
CS(=O)(Cc1cc(Nc2ncc(F)c(-c3ccc(F)cc3F)n2)cc(C(F)(F)F)c1)=NC(N)=O (single isomer, unassigned) [Example 24]	82
CS(=N)(=O)Cc1cc(Nc2ncc(F)c(-c3ccc(F)cc3F)n2)cc(C(F)(F)F)c1 (racemic) [Example 4]	91
CS(=O)(Cc1cc(Nc2ncc(F)c(-c3ccc(F)cc3F)n2)cc(C(F)(F)F)c1)=NC#N (single isomer, unassigned) [Example 3]	76
CS(=N)(=O)Cc1cc(Cl)cc(Nc2ncc(F)c(-c3ccc(F)cc3F)n2)c1 (racemic) [Example 15]	79
CS(=O)(Cc1cc(Nc2ncc(F)c(-c3ccc(F)cc3F)n2)cc(C(F)(F)F)c1)=NC(N)=O (single isomer, unassigned) [Example 23]	93
CS(=N)(=O)Cc1cc(Nc2ncc(F)c(-c3ccc(F)cc3F)n2)cc(C(F)(F)F)c1 (single isomer, unassigned) [Example 6]	71
CS(=O)(Cc1cc(Nc2ncc(F)c(-c3ccc(F)cc3F)n2)cc(C(F)(F)F)c1)=NC#N (racemic) [Example 1]	75
CS(=O)(Cc1cc(Nc2ncc(F)c(-c3ccc(F)cc3F)n2)cc(C(F)(F)F)c1)=NC#N (single isomer, unassigned) [Example 2]	79
CS(=O)(Cc1cc(Cl)cc(Nc2ncc(F)c(-c3ccc(F)cc3F)n2)c1)=NC#N (racemic) [Example 14]	75

====

- SYSTEM NAME: CDK2/CycE (Homo sapiens (Human))
- METHOD SUMMARY: CDK2/CycE kinase assay (Method 2)
- MEASUREMENT SETUP: 10 μM ATP
pIC50: −log10 of the molar value.
READOUT KIND: pIC50

MOLECULE	pIC50
CS(=N)(=O)Cc1cc(Br)cc(Nc2ncc(F)c(-c3ccc(F)cc3F)n2)c1 (single isomer, unassigned) [Example 42]	6.33

1 = CS(=O)(Cc1cc(Br)cc(Nc2ncc(F)c(-c3ccc(F)cc3F)n2)c1)=NC#N (racemic) [Example 18]
2 = CS(=O)(Cc1cc(Nc2ncc(F)c(-c3ccc(F)cc3F)n2)cc(S(F)(F)(F)(F)F)c1)=NC#N (racemic) [Example 28]
[ask] Please tell me which of the two, 1 or 2 , has the higher reported pIC50 value. The response must carry the label of the picked entry.
[reply] 1
(1: 6.33, 2: 5.89)

====

- SYSTEM NAME: CDK9/CycT1 (Homo sapiens (Human), UniProt P50750)
- Sequence (P50750 whole entry): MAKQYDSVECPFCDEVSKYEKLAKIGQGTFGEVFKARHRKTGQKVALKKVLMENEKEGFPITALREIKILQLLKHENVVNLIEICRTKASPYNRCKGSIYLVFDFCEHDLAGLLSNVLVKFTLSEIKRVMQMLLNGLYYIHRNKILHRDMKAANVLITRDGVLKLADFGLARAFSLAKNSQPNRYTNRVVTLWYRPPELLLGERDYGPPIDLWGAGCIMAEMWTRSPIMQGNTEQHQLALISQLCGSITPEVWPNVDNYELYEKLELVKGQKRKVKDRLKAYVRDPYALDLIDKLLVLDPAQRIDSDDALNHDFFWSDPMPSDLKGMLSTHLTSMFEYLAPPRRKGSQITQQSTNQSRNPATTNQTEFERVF
- Sequence (O60563 whole entry partner): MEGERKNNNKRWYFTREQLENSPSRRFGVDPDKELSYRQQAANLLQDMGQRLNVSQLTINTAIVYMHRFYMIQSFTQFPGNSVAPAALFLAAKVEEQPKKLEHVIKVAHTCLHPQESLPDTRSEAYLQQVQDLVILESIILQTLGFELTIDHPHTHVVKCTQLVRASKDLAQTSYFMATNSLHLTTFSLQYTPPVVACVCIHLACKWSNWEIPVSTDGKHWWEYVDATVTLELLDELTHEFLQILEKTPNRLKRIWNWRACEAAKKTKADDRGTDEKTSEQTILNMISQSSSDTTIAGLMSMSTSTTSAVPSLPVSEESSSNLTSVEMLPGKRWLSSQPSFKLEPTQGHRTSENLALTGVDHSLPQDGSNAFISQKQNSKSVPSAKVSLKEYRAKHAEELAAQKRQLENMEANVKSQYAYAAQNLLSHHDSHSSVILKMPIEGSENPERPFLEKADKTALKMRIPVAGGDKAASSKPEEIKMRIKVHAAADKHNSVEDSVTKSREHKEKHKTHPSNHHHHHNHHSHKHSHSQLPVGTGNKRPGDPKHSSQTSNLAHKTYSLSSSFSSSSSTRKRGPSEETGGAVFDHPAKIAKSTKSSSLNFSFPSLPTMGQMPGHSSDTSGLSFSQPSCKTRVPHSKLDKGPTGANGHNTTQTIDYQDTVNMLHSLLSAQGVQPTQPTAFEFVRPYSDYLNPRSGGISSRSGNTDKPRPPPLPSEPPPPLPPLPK
- METHOD SUMMARY: CDK9/CycT1 high ATP kinase assay (Method 1b)
- Format: biochemical
- MEASUREMENT SETUP: 2 mM ATP
READOUT KIND: IC50 (nM)

Example results:
MOLECULE	SYSTEM NAME	IC50 [nM]
CS(=N)(=O)Cc1cc(Nc2ncc(F)c(-c3ccc(F)cc3F)n2)cc(S(F)(F)(F)(F)F)c1 (single isomer, unassigned) [Example 32]	CDK9/CycT1 (Homo sapiens (Human), UniProt P50750)	6
CS(=O)(Cc1cc(Nc2ncc(F)c(-c3ccc(F)cc3F)n2)cc(S(F)(F)(F)(F)F)c1)=NC(N)=O (single isomer, unassigned) [Example 34]	CDK9/CycT1 (Homo sapiens (Human), UniProt P50750)	11
CS(=O)(Cc1cc(Nc2ncc(F)c(-c3ccc(F)cc3F)n2)cc(S(F)(F)(F)(F)F)c1)=NC#N (single isomer, unassigned) [Example 30]	CDK9/CycT1 (Homo sapiens (Human), UniProt P50750)	9
CS(=N)(=O)Cc1cc(Br)cc(Nc2ncc(F)c(-c3ccc(F)cc3F)n2)c1 (single isomer, unassigned) [Example 42]	CDK9/CycT1 (Homo sapiens (Human), UniProt P50750)	334
Cc1cc(CS(C)(=N)=O)cc(Nc2ncc(F)c(-c3ccc(F)cc3F)n2)c1 (racemic) [Example 17]	CDK9/CycT1 (Homo sapiens (Human), UniProt P50750)	470
CS(=N)(=O)Cc1cc(Nc2ncc(F)c(-c3ccc(F)cc3F)n2)cc(S(F)(F)(F)(F)F)c1 (single isomer, unassigned) [Example 31]	CDK9/CycT1 (Homo sapiens (Human), UniProt P50750)	7

1 = CS(=O)(Cc1cc(Nc2ncc(F)c(-c3ccc(F)cc3F)n2)cc(C(F)(F)F)c1)=NC(N)=O (single isomer, unassigned) [Example 24]
2 = CS(=O)(Cc1cc(Nc2ncc(F)c(-c3ccc(F)cc3F)n2)cc(C(F)(F)F)c1)=NC#N (single isomer, unassigned) [Example 3]
[ask] Please tell me which of the two, 1 or 2 , has the higher reported IC50 value. The response must carry the label of the picked entry.
[reply] 1
(1: 199 nM, 2: 32 nM)

====

- SYSTEM NAME: CDK9/CycT1 (Homo sapiens (Human))
- METHOD SUMMARY: CDK9/CycT1 high ATP kinase assay (Method 1b)
- Format: biochemical
- MEASUREMENT SETUP: 2 mM ATP
Structures can show the parent of a compound that is named as a salt.
READOUT KIND: IC50 (nM)

MOLECULE	REPORTED MEASUREMENT
COCCS(=O)(Cc1cc(Nc2ncc(F)c(-c3ccc(F)cc3F)n2)cc(C(F)(F)F)c1)=NC#N (racemic)	19

I = N=S(=O)(CCN)Cc1cc(Nc2ncc(F)c(-c3ccc(F)cc3F)n2)cc(C(F)(F)F)c1 (single isomer, unassigned) [Example 27]
II = CS(=N)(=O)Cc1cc(Cl)cc(Nc2ncc(F)c(-c3ccc(F)cc3F)n2)c1 (racemic)
III = CS(=O)(Cc1cc(Nc2ncc(F)c(-c3ccc(F)cc3F)n2)cc(S(F)(F)(F)(F)F)c1)=NC(N)=O (single isomer, unassigned) [Example 33]
[ask] Could you please sort these 3 entries by IC50 from high to low? Return value: ordered labels per request.
[reply] II, I, III
(II: 892 nM, I: 276 nM, III: 99 nM)

a = N=S(=O)(CCN)Cc1cc(Nc2ncc(F)c(-c3ccc(F)cc3F)n2)cc(C(F)(F)F)c1 (single isomer, unassigned) [Example 26]
b = CS(=O)(Cc1cc(Nc2ncc(F)c(-c3ccc(F)cc3F)n2)cc(C(F)(F)F)c1)=NC#N (racemic) [Example 1]
[ask] Please tell me which of the two, a or b , has the higher reported IC50 value. The response must carry the label of the picked entry.
[reply] a

1 = CS(=O)(Cc1cc(Nc2ncc(F)c(-c3ccc(F)cc3F)n2)cc(C(F)(F)F)c1)=NC#N (single isomer, unassigned) [Example 2]
2 = Cc1cc(CS(C)(=N)=O)cc(Nc2ncc(F)c(-c3ccc(F)cc3F)n2)c1 (single isomer, unassigned) [Example 38]
3 = CS(=O)(Cc1cc(Nc2ncc(F)c(-c3ccc(F)cc3F)n2)cc(C(F)(F)F)c1)=NC(N)=O (racemic) [Example 7]
[ask] Which order do these items take when sorted by rising IC50? List them. Return value: ordered labels per request.
[reply] 1, 3, 2
(1: 29 nM, 3: 105 nM, 2: 6490 nM)

I = N=S(=O)(CCN)Cc1cc(Nc2ncc(F)c(-c3ccc(F)cc3F)n2)cc(C(F)(F)F)c1 (racemic) [Example 25, trifluoroacetate]
II = CS(=N)(=O)Cc1cc(Nc2ncc(F)c(-c3ccc(F)cc3F)n2)cc(C(F)(F)F)c1 (racemic)
[ask] Please tell me which of the two, I or II , has the higher reported IC50 value. The response must carry the label of the picked entry.
[reply] I
(I: 417 nM, II: 251 nM)

Data origin, for the record: patent US9499492B2
